- Procedure summary: COS7 lysate on small-molecule microarray, probe aHis, 635 nm (AID 1123);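 note: z-score combines 667nm fluorescence intensity with signal-to-noise per printed compound spot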
- Assay conditions: COS7 cell lysate, fluorescence, higher = more signal
Assign composite z-score to each entry below.
Give bare numbers.

C=C[C@@H](CO)NS(=O)(=O)c1ccc(Br)cc1 -0.412
COc1ccc(-c2cc3c(c(CCc4ccccc4)n2)[Si](C(C)C)(C(C)C)O[C@H]3c2ccccc2)cn1 -0.405
O=C1OC[C@@H](c2ccccc2)n2cc(/C=C/c3ccccc3)cc21 0.163
C=C(COC)C(=O)CC[C@H](OC(C)=O)c1ccccc1OCCO 0.0092
COC(=O)[C@@]1(Cc2ccccc2)[C@H]2c3cc(C(=O)N(C)C)n(CCF)c3C[C@H]2CN1C(=O)c1ccccc1 3.26
O=C(NCCN1CCOCC1)[C@@H]1c2ccccc2C(=O)N(CC23CC4CC(CC(C4)C2)C3)[C@H]1c1ccc(CO)cc1 2.17

Let us move to another entry and its composite z-score.
For this compound ( `COCCCNC(=O)[C@@]1(Cc2ccccc2I)c2ccccc2C(=O)N(Cc2ccccc2C(F)(F)F)[C@H]1c1ccc(CO)cc1` ), measured composite z-score is 1.85
